Assay: Preclinical volume of distribution across animal species
Conditions: in vivo
MEASURE: Vd

Given the entry O=C(Nc1ccc(OC(F)(F)Cl)cc1)c1cnc(N2CC[C@@H](O)C2)c(-c2ccn[nH]2)c1 , report its measured Vd.
0.5 to 2.2 L/kg

---

Experiment: Fraction unbound in microsomal incubation (fumic)
Assay type: in vitro ADME
Details: human, microsomes (microsomal incubation), 0.5 mg/mL of protein
MEASURE: fraction unbound
# respond with the number and nothing more

Look up fraction unbound: O=C(Nc1ccc(OC(F)(F)Cl)cc1)c1cnc(N2CC[C@@H](O)C2)c(-c2ccn[nH]2)c1
0.208

---

Test: in vitro
Conditions: dog, MDCK
MEASURE: Papp A→B (×10⁻⁶ cm/s)
Value expressed in ×10⁻⁶ cm/s; do not type the unit.

>  <COMPOUND>
CC(C)NCC(O)COc1cccc2ccccc12 (centres unmarked) [propranolol, reference compound]

>  <Papp A→B (×10⁻⁶ cm/s)>
36

$$$$

Recorded Papp A→B for C[C@H]1[C@H](NC(=O)/C(=N\OC(C)(C)C(=O)O)c2csc(N)n2)C(=O)N1S(=O)(=O)O [aztreonam, reference compound] , please?
0.24
